These measurements were taken from BindingDB's records for doi:10.1021/jm3004174.

- procedure.summary: Inhibition of dUTPase in human HeLa S3 cells assessed as potentiation of 1 uM FdUrd-induced decrease in cell density incubated for 24 hrs by crystal violet assay
recorded.metric: EC50 (nM)

O=c1ccn(CCCc2cnnn2CC(c2ccccc2)c2ccccc2)c(=O)[nH]1 : 1100
CC[C@@H](Cn1nncc1CCCCn1ccc(=O)[nH]c1=O)c1cccc(OCC2CC2)c1 : 50

I. CC[C@@](O)(Cn1nncc1CCCCn1ccc(=O)[nH]c1=O)c1ccc(F)c(OCC2CC2)c1
II. O=c1ccn(CCCCc2cnnn2CCc2cccc(OCC3CC3)c2)c(=O)[nH]1
Problem: Given the entries I and II , determine which has the lower reported EC50. To answer, give the label that identifies your chosen option.
I
